target-or-system: T1, Recombinant human insulin receptor (B form) ECD (R&D Systems) (human, UniProt P06213 28-956, limits assumed)
T1 construct: extracellular domain; also called INSR-ECD; h-INSR
measurement-notes: SPR (Biacore 2000), INSR-ECD immobilised, purified Fab injected, 1:1 fit [cont'd]
readout-kind: kon (M⁻¹ s⁻¹)

{"binder": "RHF.15.05896.006 (Fab, V domains shown, Untagged Fab) VH: EVQLVETGGGVVQPGRSLRLSCAASGFKFSSYAMHWVRQAPGKGLEWVAVISYSGDNKYYADSVKGRFTISRDNSKNTLYLQMNSLRAEDTAVYYCARHEWGFGFDRWGQGTTVTVSS VL: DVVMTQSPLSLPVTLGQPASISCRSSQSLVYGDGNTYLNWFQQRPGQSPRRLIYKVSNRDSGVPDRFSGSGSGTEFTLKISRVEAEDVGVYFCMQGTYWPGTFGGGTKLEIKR", "readout-kind": "kon", "unit": "M⁻¹ s⁻¹", "experimental-result": 130000}
